Target: T1, human TIGIT expressed on CHO-K1 cells (human, UniProt Q495A1 22-244)
T1 construct: whole, on cells; also called human TIGIT-CHO-K1 cells; human TIGIT over-expressing cell line
T1 sequence (looked up): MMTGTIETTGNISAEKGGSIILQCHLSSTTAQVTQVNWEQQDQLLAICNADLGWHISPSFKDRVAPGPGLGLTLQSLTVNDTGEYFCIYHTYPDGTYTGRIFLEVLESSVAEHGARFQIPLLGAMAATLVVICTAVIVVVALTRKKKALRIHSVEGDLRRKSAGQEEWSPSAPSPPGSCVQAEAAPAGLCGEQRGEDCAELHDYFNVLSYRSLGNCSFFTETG
Assay: flow cytometry on CHO-K1 cells expressing human TIGIT
pEC50: −log10 of the molar value.

binder	pEC50
huTIGIT-6-2 (antibody, human IgG1, kappa, V domains shown, Humanized IgG; also called 6VH6.M5 + 6VL1.M1) VH: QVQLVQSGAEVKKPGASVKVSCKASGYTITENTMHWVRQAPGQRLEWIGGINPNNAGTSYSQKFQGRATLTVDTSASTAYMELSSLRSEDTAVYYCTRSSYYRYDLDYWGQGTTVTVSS VL: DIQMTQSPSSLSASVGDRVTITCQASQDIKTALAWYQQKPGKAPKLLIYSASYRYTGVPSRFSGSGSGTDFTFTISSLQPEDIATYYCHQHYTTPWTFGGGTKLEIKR	9.13
huTIGIT-19-4 (antibody, human IgG1, kappa, V domains shown, Humanized IgG; also called 19VH4.M10 + 19VL1.M7) VH: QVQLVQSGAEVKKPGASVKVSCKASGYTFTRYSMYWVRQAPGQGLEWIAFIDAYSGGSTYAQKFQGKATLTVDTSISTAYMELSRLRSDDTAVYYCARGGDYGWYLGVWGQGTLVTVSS VL: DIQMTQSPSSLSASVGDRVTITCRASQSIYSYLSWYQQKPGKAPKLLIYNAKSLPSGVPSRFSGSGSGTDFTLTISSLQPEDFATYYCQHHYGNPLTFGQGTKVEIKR	9.77

Source listed as patent US20260139048A1.
